Target: 5-lipoxygenase (Rattus norvegicus)
Construct: 20,000×g supernatant from homogenized RBL-1 cells; endogenous in cells
Sequence (P12527 whole entry): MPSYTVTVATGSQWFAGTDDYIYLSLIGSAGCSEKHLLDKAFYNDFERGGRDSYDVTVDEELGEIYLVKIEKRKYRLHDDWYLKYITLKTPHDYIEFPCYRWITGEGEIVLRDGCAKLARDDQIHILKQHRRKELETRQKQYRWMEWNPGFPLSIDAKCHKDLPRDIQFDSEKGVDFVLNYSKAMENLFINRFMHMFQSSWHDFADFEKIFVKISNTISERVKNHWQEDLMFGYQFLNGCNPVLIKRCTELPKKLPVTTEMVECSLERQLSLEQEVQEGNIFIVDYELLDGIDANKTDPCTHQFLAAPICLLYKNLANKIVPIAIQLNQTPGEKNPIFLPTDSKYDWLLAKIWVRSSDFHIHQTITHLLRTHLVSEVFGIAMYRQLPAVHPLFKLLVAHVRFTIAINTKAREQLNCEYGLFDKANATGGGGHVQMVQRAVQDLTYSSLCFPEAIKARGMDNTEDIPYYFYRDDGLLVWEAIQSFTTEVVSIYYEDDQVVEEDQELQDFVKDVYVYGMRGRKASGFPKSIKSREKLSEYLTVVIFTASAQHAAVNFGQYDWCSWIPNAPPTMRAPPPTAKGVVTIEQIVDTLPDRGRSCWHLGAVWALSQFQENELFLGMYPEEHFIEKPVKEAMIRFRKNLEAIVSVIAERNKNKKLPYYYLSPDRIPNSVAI
Test: Inhibition of 5-lipoxygenase activity in 20,000×g supernatant from homogenized RBL-1 cells
Settings: linear regression of percentage inhibition versus log inhibitor concentration, read-out: IC50 (In vitro 5-lipoxygenase inhibitory potency)

[
  {
    "COMPOUND": "CC(C)Cc1ccc(C(C)NC(=O)NO)cc1 (centres unmarked)",
    "UNIT_STRING": "nM",
    "IC50": 2900
  },
  {
    "COMPOUND": "CC(C)Cc1ccc(C(C)CNC(=O)NO)cc1 (centres unmarked)",
    "UNIT_STRING": "nM",
    "IC50": 1900
  }
]
